All figures here come from PubChem BioAssay (NCI).

Test system: DMS 273 small cell lung
Assay overview: NCI tumour cell line growth inhibition, 48 h

{"Molecule": "CCCCCCCCNC(=O)SCCCC", "TGI": "> 100 µM"}
{"Molecule": "CC(C)(C)OC(=O)C1=C(O)C(C(=O)OC(C)(C)C)C23CCCCC12C(C(=O)OC(C)(C)C)C(O)=C3C(=O)OC(C)(C)C (stereo not drawn)", "TGI": "> 100 µM"}
{"Molecule": "FC(F)(F)c1cccc(C=NC23CC4CC(CC(C4)C2)C3)c1", "TGI": "> 100 µM"}
{"Molecule": "CC(C)(C)c1ccc2c(c1)OP1(Oc3cccc4cccnc34)(O2)Oc2ccc(C(C)(C)C)cc2O1", "TGI": "13.8 µM"}
{"Molecule": "Cc1cc2c(cc1O)[nH]c1cc3c(cc12)C=CC(C)(C)O3", "TGI": "12.2 µM"}
{"Molecule": "Cc1ccc(-c2cc(=O)c3cc4c(cc3[nH]2)OCO4)cc1", "TGI": "> 25 µM"}
{"Molecule": "Cn1c(C2CCCc3c2c2ccccc2n3C)cc2ccccc21 (stereo not drawn)", "TGI": "> 318 µM"}
{"Molecule": "Cc1cc(C)nc(NS(=O)(=O)c2ccc(NC(=O)c3cccc4c(Nc5ccc(S(=O)(=O)N=C(N)N)cc5)c5ccccc5nc34)cc2)n1", "TGI": "80.6 µM"}
{"Molecule": "Cc1ccc(N=Nc2c(C)nn(-c3ccccc3)c2C)c(Br)c1", "TGI": "> 100 µM"}
{"Molecule": "COc1cc(/C=C2\\CCC(C)(CN(C)C)C2=O)cc(OC)c1OC (stereo not drawn)", "TGI": "> 100 µM"}
{"Molecule": "COc1cc2c(c(OC)c1OC)CCNC2C1=C(O)COC1=O (stereo not drawn)", "TGI": "> 100 µM"}
{"Molecule": "Cc1ccc(S(=O)(=O)OCC23CCC(C2)C2CC23)cc1 (stereo not drawn)", "TGI": "> 100 µM"}
{"Molecule": "O=C1c2cccc3cc4ccccc4c(c23)C(=O)N1CCNCCN1C(=O)c2cccc3cc4ccccc4c(c23)C1=O", "TGI": "1 µM"}
{"Molecule": "CCc1cccc(C(C)CC)c1NC(=O)CC1C(=O)Nc2ccccc2S1(=O)=O (stereo not drawn)", "TGI": "71.3 µM"}
{"Molecule": "COc1ccccc1N=NC(C(=O)c1ccccc1)C(=O)c1ccccc1", "TGI": "57.9 µM"}
{"Molecule": "C#CCn1c(=O)[nH]c(=O)c2cccnc21", "TGI": "> 100 µM"}
{"Molecule": "Cc1cccc(C)c1NC(=O)CCC(=O)NNc1nnc(C)n1N", "TGI": "> 100 µM"}
{"Molecule": "COC(=O)N/N=C(/CC1(O)C(=O)Nc2ccc([N+](=O)[O-])cc21)c1ccccc1 (stereo not drawn)", "TGI": "> 100 µM"}

* * *

Test system: SK-MEL-2 melanoma
Assay overview: NCI tumour cell line growth inhibition, 48 h
# TGI per record follows
Readout type: TGI (µM)

{"Compound": "C[Si](C)(C)CNC(=O)OCc1ccccc1", "Target under test": "SK-MEL-2 melanoma", "Unit label": "µM", "Relation qualifier": ">", "Reported measurement": 100}
{"Compound": "COC(=O)[C@@H]1CCc2nc3ccccc3c(=O)n21", "Target under test": "SK-MEL-2 melanoma", "Unit label": "µM", "Relation qualifier": ">", "Reported measurement": 100}
{"Compound": "COc1cccc2c1C(=O)c1c(O)c3c(c(O)c1C2=O)C[C@@](O)(C(=O)CO)C[C@@H]3OC1CC(N(C)C)C(O)C(C)O1 (stereo not given in full)", "Target under test": "SK-MEL-2 melanoma", "Unit label": "µM", "Relation qualifier": "=", "Reported measurement": 0.0885}
{"Compound": "O=C1C(=O)/C(=C/c2ccccc2)CCCCCC/C1=C/c1ccccc1", "Target under test": "SK-MEL-2 melanoma", "Unit label": "µM", "Relation qualifier": "=", "Reported measurement": 34.4}
{"Compound": "CO[C@@H](C)Cn1c(=O)n(C)c2cnc3ccc(-c4cncc(C(C)(C)O)c4)cc3c21", "Target under test": "SK-MEL-2 melanoma", "Unit label": "µM", "Relation qualifier": "=", "Reported measurement": 0.494}

* * *

# TGI per record follows
System: SK-MEL-28 melanoma
Assay overview: NCI tumour cell line growth inhibition, 48 h
Readout type: TGI (µM)

{"Compound": "CCOC(=O)C1=C(C#N)S(=O)(=O)c2c(oc(C)c2C)N1", "Readout type": "TGI", "Relation qualifier": ">", "Reported measurement": 100}
{"Compound": "CCOC(=O)CNC(=O)C(CSCC1C(=O)Nc2ccccc21)NC(=O)CCC(N)C(=O)OCC (stereo unspecified)", "Readout type": "TGI", "Relation qualifier": "=", "Reported measurement": 3.59}
{"Compound": "Cc1cccc(NS(=O)(=O)c2ccc3c(c2)OCCOCCOCCOCCO3)c1", "Readout type": "TGI", "Relation qualifier": ">", "Reported measurement": 100}
{"Compound": "O=C1C(=O)/C(=C/c2ccccc2)CCCCCC/C1=C/c1ccccc1", "Readout type": "TGI", "Relation qualifier": "=", "Reported measurement": 15.4}
{"Compound": "COc1cc(/C=C/c2cc(/C=C/c3ccc(O)c(OC)c3)n(C(=O)Cc3ccccc3)n2)ccc1O", "Readout type": "TGI", "Relation qualifier": "=", "Reported measurement": 15.1}
{"Compound": "COc1cc(C(=O)Nc2cccc3ccccc23)c(Br)c(OC)c1OC", "Readout type": "TGI", "Relation qualifier": ">", "Reported measurement": 100}
{"Compound": "CN(C)C1C(CO)OC(n2cnc3c(N)ncnc32)C1O (stereo unspecified)", "Readout type": "TGI", "Relation qualifier": ">", "Reported measurement": 100}
{"Compound": "[N-]=[N+]=CC(=O)OC1CCOCC1", "Readout type": "TGI", "Relation qualifier": ">", "Reported measurement": 100}
{"Compound": "O=C(c1ccc(Oc2ccccc2)cc1Cl)c1c[nH]c2ncnc(N[C@@H]3CC[C@@H](CO)OC3)c12", "Readout type": "TGI", "Relation qualifier": "=", "Reported measurement": 0.465}
{"Compound": "CN(c1ccc(Cl)c(Cl)c1)c1cnc2cc(N)cc(N)c2n1", "Readout type": "TGI", "Relation qualifier": "=", "Reported measurement": 8.06}
{"Compound": "CC1=C(C)C(=O)C(C2=C(C3=CC(=O)C(C)=C(C)C3=O)C(=O)C(C)=C(C)C2=O)=CC1=O", "Readout type": "TGI", "Relation qualifier": "=", "Reported measurement": 14}
{"Compound": "NCCC1([N+](=O)[O-])C=CN=CC1 (stereo unspecified)", "Readout type": "TGI", "Relation qualifier": ">", "Reported measurement": 100}
{"Compound": "CC(=O)c1ccc(Nc2cc(-n3nnc4ccccc43)nc3ccccc23)cc1", "Readout type": "TGI", "Relation qualifier": ">", "Reported measurement": 100}
{"Compound": "CCOC(=O)NC(NCC(O)c1ccccc1)(C(F)(F)F)C(F)(F)F (stereo unspecified)", "Readout type": "TGI", "Relation qualifier": ">", "Reported measurement": 100}
{"Compound": "Cn1c(=O)c2[nH]c(CCCCc3nc4ccccc4[nH]3)nc2n(C)c1=O", "Readout type": "TGI", "Relation qualifier": ">", "Reported measurement": 100}
{"Compound": "CN(C)/C=N/S(=O)(=O)c1nn2c(C=O)c(-c3ccccc3)nc2s1", "Readout type": "TGI", "Relation qualifier": "=", "Reported measurement": 29.8}
{"Compound": "Cc1cc2c(cc1O)[nH]c1cc3c(cc12)C=CC(C)(C)O3", "Readout type": "TGI", "Relation qualifier": ">", "Reported measurement": 25}
{"Compound": "COC1=C(C)C(=O)N2[C@@H]1[C@H](c1ccccc1)OC21C=CC(=O)C=C1", "Readout type": "TGI", "Relation qualifier": "=", "Reported measurement": 6.68}
{"Compound": "CCOC(=O)c1ccc(N=C2S/C(=C\\C(=S)Nc3ccccc3)N(c3ccccc3)C2=Nc2ccc(C(=O)OCC)cc2)cc1", "Readout type": "TGI", "Relation qualifier": ">", "Reported measurement": 100}
{"Compound": "C1C[OH+]CCNCC[OH+]CC[OH+]CCN1.O.[Cl-].[Pt+4]", "Readout type": "TGI", "Relation qualifier": ">", "Reported measurement": 100}
{"Compound": "COc1cc2c(Oc3ccc4[nH]c(C)cc4c3F)ncnc2cc1OCCCN1CCCC1", "Readout type": "TGI", "Relation qualifier": "=", "Reported measurement": 6.68}
